System: CAKI-1
Assay: NCI tumour cell line growth inhibition, 48 h
The source made the active and inactive calls. Cut-off read from the data, not from the text of the source: active = GI50 up to about 1.1 µM and inactive = higher. Peptide text beside a SMILES is read from it. * marks the point of attachment. Boc = CC(C)(C)OC(=O)*; OBn = c1ccc(CO*)cc1
Outcome field: choose from active, inactive

[
  {
    "MOLECULE": "N#Cc1ccc(/C=N/C23CC4CC(CC(C4)C2)C3)cc1",
    "LABEL": "inactive"
  },
  {
    "MOLECULE": "Oc1nc(CC(O)c2ccc(Cl)c(Cl)c2)cc(-c2ccccc2)n1 (stereo not drawn)",
    "LABEL": "inactive"
  },
  {
    "MOLECULE": "COc1ccc2oc(-c3cccnc3)cc(=O)c2c1",
    "LABEL": "inactive"
  },
  {
    "MOLECULE": "Cc1ccc(N2CN3OC(=O)N(c4ccccc4)[C@@]3(c3ccccc3)C2)cc1",
    "LABEL": "inactive"
  },
  {
    "MOLECULE": "COc1cccc(CCn2c(N)c(C#N)c3ccc([N+](=O)[O-])cc3c2=O)c1",
    "LABEL": "inactive"
  }
]

Status in this test for CC(NC(=O)C(NC(=O)OC(C)(C)C)C(C)C)C(=O)N1CCCC1C(=O)NCC(=O)NC(C(=O)NCC(=O)OCc1ccccc1)C(C)C (stereo not drawn) (Boc-VAPGVG-OBn; configuration not given here) ?
inactive

Status in this test for "CCCCCCOP(=O)(OCCCCCC)C(NC(=O)OCC)(C(F)(F)F)C(F)(F)F" ?
inactive

====

Each entry below carries its recorded GI50.
Test system: MCF7
Experiment: NCI tumour cell line growth inhibition, 48 h
Activity calls are given as the source filed them. No stated cut-off is given here; in the data, active = GI50 up to about 1.1 µM and inactive = higher.

[
  {
    "COMPOUND": "CCC1(O)CN(CCOC)[C@H]2C[C@@H]1C(=O)c1[nH]c3ccccc3c12 (some centres undefined)",
    "GI50": "> 100 µM (inactive)"
  },
  {
    "COMPOUND": "CC1=C(c2ccc(C)cc2)NC(=S)C(C)C(c2ccc(C)cc2)=N1 (centres undefined)",
    "GI50": "42 µM (inactive)"
  },
  {
    "COMPOUND": "COC(=O)CCc1cc(O)c2c(c1)C(C(=O)OC)C(c1ccc(O)c(O)c1)O2 (centres undefined)",
    "GI50": "4.79 µM (inactive)"
  },
  {
    "COMPOUND": "COC(=O)[C@]12CC[C@H]3CN(C(=O)OCc4ccccc4)[C@H]([C@H]31)[C@H](c1ccccc1)N2",
    "GI50": "67.6 µM (inactive)"
  },
  {
    "COMPOUND": "Cc1c(S(=O)(=O)/N=C(\\NN)Nc2ccc(Cl)cc2)sc2ccc(Cl)cc12",
    "GI50": "14.9 µM (inactive)"
  }
]

compound "Cc1ccc(/C=N/Nc2nc3ccccc3s2)s1" , GI50 observed: 5.53 µM (inactive)

compound "COc1cc(/N=C\N(C)C)c2ncccc2c1" , GI50 observed: 48.5 µM (inactive)

compound CC(C)[Si]1(C(C)C)OCC2OC(n3c(C(=O)c4ccccc4)cc(=O)[nH]c3=O)CC2O[Si](C(C)C)(C(C)C)O1 (centres undefined) , GI50 observed: 2.94 µM (inactive)

compound COC(=O)c1c(O)ccc2c1C1(Cc3ccccc3C1=O)C(O)O2 (centres undefined) , GI50 observed: 12.6 µM (inactive)

compound CC(Cc1ccc2c(c1)OCO2)N(C)C(=O)C1=CCN(C)CC1 (centres undefined) , GI50 observed: > 100 µM (inactive)

compound "Cc1ccc2c(c1C)C(=O)/C(=C/c1ccccc1C(=O)O)C2" , GI50 observed: > 100 µM (inactive)

compound "C1CSCCSCCCSCCSCCCSCCSCCCSCCSC1" , GI50 observed: > 100 µM (inactive)

compound "O=C(O)c1cc(/N=N/c2ccc([N+](=O)[O-])cc2)ccc1O" , GI50 observed: 30.8 µM (inactive)
